Test system: MEK3
Construct: gene MAP2K3
Settings: concentration: 1 μM, replicates: in singlicate; n = 1;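 note: KINOMEscan kinase panel screen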
Let's look at some molecules and their measured %Inh.
Use % as the unit, but write only the number.

Exercise: Any idea what %Inh came out for CN1C(=O)C(Nc2ccccc2)=C(c2ccccc2)C1=O on MEK3?
Solution: 25

Exercise: Checklist item: %Inh tested on MEK3, entry CN1C(=O)C(Nc2cc(Cl)c(O)c(Cl)c2)=C(c2ccc(Cl)cc2)C1=O , value?
Solution: 29

Exercise: # query: %Inh | item CCc1ccc(-c2ccc3c(c2)-c2nn(C)cc2S(=O)(=O)N3C)cc1 | system: MEK3
Solution: 17

Exercise: State its %Inh on MEK3: CCCNC(=O)Nc1ccc(Oc2ncnc3ccn(C)c23)cc1
Solution: 0

Exercise: Give the reported %Inh for Cl.NS(=O)(=O)c1cccc(Nc2cc(-c3ccc(F)cc3)n[nH]2)c1 (system: MEK3).
Solution: 22

Exercise: Please state recorded %Inh (tested on MEK3) of COc1ccc(-c2cc3c(C)nc(N)nc3n([C@H]3CC[C@H](OCCO)CC3)c2=O)cn1
Solution: 5

Exercise: Query for MEK3: what %Inh does the record show for COc1cc(Nc2ccnc3ccc(C(F)(F)F)cc23)cc(OC)c1OC ?
Solution: 0

Exercise: Query the reported %Inh for MEK3; item: O=c1cc(N2CCOCC2)nc2n(Cc3ccc(F)c(Cl)c3)ccn12
Solution: 0

Exercise: Requested read-out %Inh, target or system MEK3, entry COc1cccc(-n2cnc3c(N)ncnc32)c1
Solution: 43

====

Catalogue of compounds with associated %Inh
Tested on: TRKB
Details: concentration: 1 μM, replicates: in singlicate; n = 1
Could you give me the number in %? Just the number is fine.

For orientation, consider the following solved cases.
1. CN1C(=O)C(Nc2cc(Cl)c(O)c(Cl)c2)=C(c2ccc(Cl)cc2)C1=O ... 36
2. COc1cc(Nc2nccc(N3CCC(NC(=O)C(C)c4ccc(Cl)cc4)C3)n2)cc(OC)c1OC (stereo not drawn) ... 0
3. FC(F)(F)c1ccc(-c2ncn(CCCN3CCOCC3)c2-c2ccncc2)cc1 ... 0
4. Cl.c1ccc(Cn2cnc3cc(Nc4ncnc5ccccc45)ccc32)cc1 ... 0
5. O=C(Nc1ccc2c(c1)OCO2)NC1CCN(c2ccnc(NCc3ccc(F)cc3)n2)CC1 ... 15
6. CCc1nc(-c2cccc(C)c2)c(-c2ccncc2)s1 ... 0
7. Cc1ccc(-c2ccc3c(ccc4sc5c(c43)NC[C@@H](C)N=C5N(C)C)n2)cn1 ... 0
8. Nc1nc(-c2ccccc2F)c(-c2ccnc3ccccc23)s1 ... 26

Exercise: Which measured %Inh value corresponds to Nc1nccc2scc(-c3ccc4c(c3)CCN4C(=O)Cc3ccccc3)c12 ?
Solution: 0

Exercise: // returns reported %Inh for input COc1cccc(C2=C(N(C)c3ccccc3)C(=O)NC2=O)c1
Solution: 0

Exercise: What does the data say about its %Inh? Entry: COC(=O)c1c(-c2ccccc2)c2cc(C)ccc2c(=O)n1Cc1ccccc1
Solution: 0

Exercise: Return reported %Inh; argument: CCC(=O)c1c(-c2ccccc2)c2cc(Cl)ccc2c(=O)n1Cc1cc(S(C)(=O)=O)n(CC(F)F)n1
Solution: 0

Exercise: Which measured %Inh value corresponds to Cn1c(=O)c(F)c(Nc2ccc(I)cc2F)c2c(=O)n(OC[C@H](O)CO)cnc21 ?
Solution: 0

Exercise: Data request, read-out %Inh, for O=C1NC(=O)C(c2ccccc2)=C1Nc1cccc(O)c1
Solution: 0

Exercise: Would you kindly share the measured %Inh for O=C(Nc1n[nH]c2nc(-c3ccccc3)c(Cl)cc12)C1CC1 ?
Solution: 0

Exercise: GET /values?readout=%Inh&item= C[C@@H]1CC[C@H](C(=O)NC2CCCCC2)CN1c1cc(-c2ccc3c(N)n[nH]c3c2)nc(N)n1
Solution: 0

Exercise: May I ask what %Inh has been recorded for Cc1ccc(Oc2ccc(Nc3ncnc4cc[nH]c34)cc2C)cn1 ?
Solution: 14

Exercise: Can you share its %Inh? I mean this compound: Cl.NS(=O)(=O)c1cccc(Nc2cc(-c3ccc(F)cc3)n[nH]2)c1
Solution: 44
